inhibition at 10 µM values for the compounds below.
- System: HL-60(TB)
- method.notes: NCI SRB growth inhibition (single dose 10 µM / five-dose)
- Type: cell-based, human
- test.conditions: Homo sapiens; HL-60(TB) (Leukemia), 10 µM; read-out: GI%

{"columns": ["structure.string", "inhibition at 10 µM"],
 "data": [
  ["COc1ccc(-c2nc3cc(C(=O)NN=Cc4cc(OC)c(OC)c(OC)c4)ccc3[nH]2)cc1", "< 5%"],
  ["COc1cccc(C=NNC(=O)c2ccc3[nH]c(-c4ccc(Cl)cc4)nc3c2)c1O", "> 100%"],
  ["COc1ccc(-c2nc3cc(C(=O)NN=Cc4cccc(OC)c4O)ccc3[nH]2)cc1", "> 100%"],
  ["O=C(NN=Cc1cccc(O)c1)c1ccc2[nH]c(-c3ccc(Cl)cc3)nc2c1", "< 5%"]
]}

====

inhibition at 10 µM values for the compounds below.
- Test system: SNB-19
- method.notes: NCI SRB growth inhibition (single dose 10 µM / five-dose)
- Assay type: cell-based, human
- test.conditions: Homo sapiens; SNB-19 (CNS cancer), 10 µM; read-out: GI%

{"columns": ["structure.string", "inhibition at 10 µM"],
 "data": [
  ["O=C(NN=Cc1ccccc1O)c1ccc2[nH]c(-c3ccc(Cl)cc3)nc2c1", "> 100%"],
  ["COc1ccc(-c2nc3cc(C(=O)NN=Cc4cc(OC)ccc4OC)ccc3[nH]2)cc1", "< 5%"],
  ["COc1cccc(C=NNC(=O)c2ccc3[nH]c(-c4ccc(Cl)cc4)nc3c2)c1O", "> 100%"],
  ["COc1cccc(C=NNC(=O)c2ccc3[nH]c(-c4ccccc4)nc3c2)c1", "< 5%"],
  ["COc1ccc(C=NNC(=O)c2ccc3[nH]c(-c4ccccc4)nc3c2)cc1O", "< 5%"],
  ["O=C(NN=Cc1cccc(O)c1)c1ccc2[nH]c(-c3ccccc3)nc2c1", "< 5%"],
  ["COc1cc(C=NNC(=O)c2ccc3[nH]c(-c4ccc(Cl)cc4)nc3c2)cc(OC)c1OC", "> 100%"],
  ["COc1ccc(-c2nc3cc(C(=O)NN=Cc4cccc(OC)c4)ccc3[nH]2)cc1", "> 100%"],
  ["COc1ccc(-c2nc3cc(C(=O)NN=Cc4cccc(OC)c4O)ccc3[nH]2)cc1", "> 100%"],
  ["COc1cccc(C=NNC(=O)c2ccc3[nH]c(-c4ccc(Cl)cc4)nc3c2)c1", "> 100%"],
  ["COc1ccc(-c2nc3cc(C(=O)NN=Cc4ccccc4O)ccc3[nH]2)cc1", "> 100%"]
]}

====

- Tested on: DU-145
- method.notes: NCI SRB growth inhibition (single dose 10 µM / five-dose)
- Type: cell-based, human
- test.conditions: Homo sapiens; DU-145 (Prostate cancer), 10 µM; read-out: GI%
reported.endpoint: inhibition at 10 µM

{"columns": ["structure.string", "reported.endpoint", "result"],
 "data": [
  ["COc1ccc(OC)c(C=NNC(=O)c2ccc3[nH]c(-c4ccc(Cl)cc4)nc3c2)c1", "inhibition at 10 µM", "52%"],
  ["COc1ccc(-c2nc3cc(C(=O)NN=Cc4cc(OC)ccc4OC)ccc3[nH]2)cc1", "inhibition at 10 µM", "< 5%"],
  ["COc1cc(C=NNC(=O)c2ccc3[nH]c(-c4ccccc4)nc3c2)cc(OC)c1OC", "inhibition at 10 µM", "17.1%"],
  ["COc1cccc(C=NNC(=O)c2ccc3[nH]c(-c4ccc(Cl)cc4)nc3c2)c1O", "inhibition at 10 µM", "> 100%"],
  ["COc1ccc(-c2nc3cc(C(=O)NN=Cc4cc(OC)c(OC)c(OC)c4)ccc3[nH]2)cc1", "inhibition at 10 µM", "< 5%"],
  ["COc1ccc(-c2nc3cc(C(=O)NN=Cc4cccc(OC)c4O)ccc3[nH]2)cc1", "inhibition at 10 µM", "85.1%"]
]}
